Target: hOX2R (Homo sapiens, UniProt O43614)
Sequence (O43614 whole entry): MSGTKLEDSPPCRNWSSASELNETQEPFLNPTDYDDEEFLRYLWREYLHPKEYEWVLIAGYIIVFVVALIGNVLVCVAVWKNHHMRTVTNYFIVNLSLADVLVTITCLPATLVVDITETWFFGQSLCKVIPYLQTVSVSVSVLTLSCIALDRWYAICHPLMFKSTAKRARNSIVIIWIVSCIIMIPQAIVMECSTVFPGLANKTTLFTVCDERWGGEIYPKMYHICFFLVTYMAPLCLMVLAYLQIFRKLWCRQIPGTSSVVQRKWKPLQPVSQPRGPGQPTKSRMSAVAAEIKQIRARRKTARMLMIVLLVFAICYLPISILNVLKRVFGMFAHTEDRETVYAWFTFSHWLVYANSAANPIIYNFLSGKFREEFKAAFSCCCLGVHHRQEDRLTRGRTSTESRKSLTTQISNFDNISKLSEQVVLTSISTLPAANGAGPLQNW
Assay: Intracellular calcium measurements using stable-replicating cells, Method A, OX2
Assay type: cell-based
Settings: orexin-A at 4×EC50, * = single experiment, read-out: pIC50 OX2 (converted)
Procedure: Intracellular Calcium Measurements Using Stable-replicating Cells: […] Loading dye (25 μL/well), prepared from a FLIPR Calcium 6 Assay kit (Molecular Devices, R8190-Explorer) according to the manufacturer's instructions, and the serially diluted test compounds (10 μL/well) are added to the plate. The plate is then incubated for 30 mins at 37° C. in 5% CO2, then for 30 mins at ambient temperature and placed into a FlexStation III reader.
# Lookup of reported IC50 keyed by entry
readout.type: IC50 (nM)

smiles_input=CC[C@@H](CNc1ncc(Cl)cc1[N+](=O)[O-])N(C)C(=O)c1cc(Cl)ccc1-n1nccn1 readout_type=IC50 relational_operator=> observed_measurement=10000
smiles_input=CC[C@@H](CNc1ccc2ccccc2n1)N(C)C(=O)c1cc(Cl)ccc1-n1nccn1 readout_type=IC50 relational_operator== observed_measurement=1260
smiles_input=Cc1nc(-c2ccccc2)c(C(=O)N(C)[C@H](CNc2ccc(Cl)cn2)CC(C)C)s1 readout_type=IC50 relational_operator=> observed_measurement=10000
smiles_input=CC[C@@H](CNc1ccc(Cl)cn1)N(C)C(=O)c1cc(C)ccc1-n1nccn1 readout_type=IC50 relational_operator== observed_measurement=1260
smiles_input=CC[C@@H](CNc1ncc(C(F)(F)F)cn1)N(C)C(=O)c1cc(Cl)ccc1-n1nccn1 readout_type=IC50 relational_operator=> observed_measurement=10000
smiles_input=CC[C@@H](CNc1ccc2ccccc2n1)N(C)C(=O)c1nc(C)ccc1-n1nccn1 readout_type=IC50 relational_operator== observed_measurement=2000
smiles_input=CC[C@@H](CNc1ncc2ccccc2n1)N(C)C(=O)c1nc(C)ccc1-n1nccn1 readout_type=IC50 relational_operator== observed_measurement=1580
smiles_input=CC[C@@H](CNc1nc2ccccc2s1)N(C)C(=O)c1nc(C)ccc1-n1nccn1 readout_type=IC50 relational_operator== observed_measurement=1260
smiles_input=CC[C@@H](CNc1ncc(C(F)(F)F)cn1)N(C)C(=O)c1cc(Cl)cc2cccnc12 readout_type=IC50 relational_operator== observed_measurement=200
smiles_input=CC[C@@H](CNc1cnc(C(F)(F)F)cn1)N(C)C(=O)c1nc(C)ccc1-n1nccn1 readout_type=IC50 relational_operator=> observed_measurement=7940
smiles_input=CC[C@@H](CNc1ccc(Cl)cn1)N(C)C(=O)c1cc(C)c(C)cc1-n1nccn1 readout_type=IC50 relational_operator== observed_measurement=316
smiles_input=CC[C@@H](CNc1ncc(C(F)(F)F)cn1)N(C)C(=O)c1cccc2cccnc12 readout_type=IC50 relational_operator== observed_measurement=1580
smiles_input=CC[C@@H](CNc1ncc(C(F)(F)F)cn1)N(C)C(=O)c1nc(C)ccc1-n1nccn1 readout_type=IC50 relational_operator=> observed_measurement=10000
smiles_input=CC[C@@H](CNc1ncc(C(F)(F)F)cn1)N(C)C(=O)c1nc(C)cc2ccccc12 readout_type=IC50 relational_operator== observed_measurement=1000
smiles_input=CC[C@@H](CNc1nc2cc(Cl)ccc2o1)N(C)C(=O)c1nc(C)ccc1-n1nccn1 readout_type=IC50 relational_operator== observed_measurement=2510
smiles_input=CC[C@@H](CNc1ncc(Cl)cc1N)N(C)C(=O)c1cc(Cl)ccc1-n1nccn1 readout_type=IC50 relational_operator=> observed_measurement=10000
